Source: BigSolDB 2.1

Conditions: in ethanol, 308.15 K
property measured: solubility (mole fraction)
Write the value as a bare number.

Q: Requested field: solubility (mole fraction). Item: COC(=O)c1cccc(C(=O)OC)n1
A: 0.00436

---

Details: in THF, 313.15 K
property measured: solubility (mole fraction)
Write the value as a bare number.

Q: Requested field: solubility (mole fraction). Item: COC(=O)c1cccc(C(=O)OC)n1
A: 0.0293

---

Conditions: in n-propanol, 288.15 K
property measured: solubility (mole fraction)
Write the value as a bare number.

Q: Requested field: solubility (mole fraction). Item: COC(=O)c1cccc(C(=O)OC)n1
A: 0.00078

---

Conditions: in ethanol, 278.15 K
property measured: solubility (mole fraction)
Write the value as a bare number.

Q: Requested field: solubility (mole fraction). Item: COC(=O)c1cccc(C(=O)OC)n1
A: 0.00042

---

Settings: in n-propanol, 323.15 K
property measured: solubility (mole fraction)
Write the value as a bare number.

Q: Requested field: solubility (mole fraction). Item: COC(=O)c1cccc(C(=O)OC)n1
A: 0.00839

---

Conditions: in isopropyl acetate, 323.15 K
property measured: solubility (mole fraction)
Write the value as a bare number.

Q: Requested field: solubility (mole fraction). Item: COC(=O)c1cccc(C(=O)OC)n1
A: 0.0262

---

Conditions: in isopentyl acetate, 313.15 K
property measured: solubility (mole fraction)

Q: Requested field: solubility (mole fraction). Item: COC(=O)c1cccc(C(=O)OC)n1
A: 0.00944

---

Conditions: in ethanol, 318.15 K
property measured: solubility (mole fraction)
Write the value as a bare number.

Q: Requested field: solubility (mole fraction). Item: COC(=O)c1cccc(C(=O)OC)n1
A: 0.00757

---

Details: in n-butyl acetate, 278.15 K
property measured: solubility (mole fraction)

Q: Requested field: solubility (mole fraction). Item: COC(=O)c1cccc(C(=O)OC)n1
A: 0.0015

---

Settings: in isopropyl acetate, 283.15 K
property measured: solubility (mole fraction)
Write the value as a bare number.

Q: Requested field: solubility (mole fraction). Item: COC(=O)c1cccc(C(=O)OC)n1
A: 0.00235

---

Details: in n-propanol, 298.15 K
property measured: solubility (mole fraction)
Write the value as a bare number.

Q: Requested field: solubility (mole fraction). Item: COC(=O)c1cccc(C(=O)OC)n1
A: 0.00171

---

Details: in n-propanol, 283.15 K
property measured: solubility (mole fraction)
Write the value as a bare number.

Q: Requested field: solubility (mole fraction). Item: COC(=O)c1cccc(C(=O)OC)n1
A: 0.0005

---

Conditions: in n-butyl acetate, 293.15 K
property measured: solubility (mole fraction)
Write the value as a bare number.

Q: Requested field: solubility (mole fraction). Item: COC(=O)c1cccc(C(=O)OC)n1
A: 0.00462

---

Conditions: in methyl acetate, 278.15 K
property measured: solubility (mole fraction)
Write the value as a bare number.

Q: Requested field: solubility (mole fraction). Item: COC(=O)c1cccc(C(=O)OC)n1
A: 0.00524

---

Conditions: in methanol, 288.15 K
property measured: solubility (mole fraction)
Write the value as a bare number.

Q: Requested field: solubility (mole fraction). Item: COC(=O)c1cccc(C(=O)OC)n1
A: 0.00142

---

Settings: in methyl acetate, 308.15 K
property measured: solubility (mole fraction)
Write the value as a bare number.

Q: Requested field: solubility (mole fraction). Item: COC(=O)c1cccc(C(=O)OC)n1
A: 0.0312
